Biological target: Adenosine receptor A2a (Homo sapiens)
Sequence (P29274 whole entry): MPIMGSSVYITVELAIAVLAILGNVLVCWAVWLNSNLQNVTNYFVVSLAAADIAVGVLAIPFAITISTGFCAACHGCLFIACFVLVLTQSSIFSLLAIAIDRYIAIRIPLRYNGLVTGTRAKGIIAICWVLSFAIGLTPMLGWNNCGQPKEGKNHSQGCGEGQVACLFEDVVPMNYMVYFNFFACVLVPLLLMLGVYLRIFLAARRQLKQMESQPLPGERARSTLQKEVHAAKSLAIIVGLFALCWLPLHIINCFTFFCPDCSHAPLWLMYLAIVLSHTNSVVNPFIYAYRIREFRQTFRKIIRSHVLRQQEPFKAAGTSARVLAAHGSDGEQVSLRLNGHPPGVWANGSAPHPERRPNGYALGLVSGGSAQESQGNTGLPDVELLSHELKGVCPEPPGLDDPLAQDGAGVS
Test: Displacement of [3H]ZM241385 from human A2A adenosine receptor expressed in CHO cells at 1 uM after 60 mins by scintillation counting analysis
Format: cell-based
quantity.measured: inhibition (%)

// known answers, use as guide
Cc1nc(NC(=O)c2ccncc2)c2nn(-c3ccccc3)cc2n1    1
Cc1nc(NC(=O)Cc2ccccc2)c2nn(-c3ccccc3)cc2n1    13
COc1ccc(-n2cc3nc(-c4ccccc4)nc(N)c3n2)cc1    35
Cc1nc(NC(=O)c2cccnc2)c2nn(-c3ccccc3)cc2n1    1
Cc1nc(N(C(=O)c2ccccc2)C(=O)c2ccccc2)c2nn(-c3ccccc3)cc2n1    1

P. O=C(Nc1nc(-c2ccccc2)nc2cn(-c3ccccc3)nc12)c1ccco1
Q. COc1ccc(-n2cc3nc(C)nc(NC(=O)c4ccco4)c3n2)cc1
R. COc1ccc(-n2cc3nc(C)nc(NC(C)=O)c3n2)cc1
[ask] List the 3 entries from lowest inhibition to highest inhibition value. Hello, could you send the labels back in the order asked? Thank you.
[reply] P, Q, R

Value source: ChEMBL document CHEMBL2321860
